Target: HLA-B*51:01 (human)
Experiment: in vitro peptide-MHC affinity measurement
pIC50: −log10 of the molar value.

[
  {
    "binder": "DGLRDLPSI",
    "pIC50": 7.90
  },
  {
    "binder": "YIIEREPLI",
    "pIC50": 5.75
  },
  {
    "binder": "TPESKIRFV",
    "pIC50": 7.07
  }
]
